- Target of assay: BRD4(1), first bromodomain of BRD4 (Homo sapiens, UniProt O60885)
- Construct: first bromodomain; BRD4_HUMAN O60884-1 fragment 44-168 (crystallography)
- Experiment: ITC; co-crystal structure at […] Å
pKd: −log10 of the molar value.
Measurement name: pKd

INSERT INTO assay_data (smiles_data, measurement_name, reported_measurement) VALUES
  ('Cc1noc(C)c1-c1ccc2c(c1)[C@H](c1ccccc1)N(C)C2=O', 'pKd', 8.27);

These entries and their values trace back to paper PMC5190074.
